PROCEDURE DETAILS: Solubility in DPBS (A280 of supernatant)
Assay type: physicochemical
CONDITION DESCRIPTION: DPBS, Table 2; read-out: Solubility
Numbered stars: 1 amine (or outer) side, 2 acyl side, 3 side chain; on linkers, the order of the positions; unused ones are H or OH. Bridge positions count the residues as written; N and C are the ends. Square brackets hold non-standard residues; d marks the D form. Peptide text beside a SMILES is read from it. X4 = O=C([C@]1(N[*:1])CCN(CC=[*:3])C1)[*:2]; R8 = C=CCCCCCC[C@@](C)(N)C(=O)O
Reported solubility by item:
Form entry: value (µM) — number only.

COMPOUND	VALUE TYPE	EXPERIMENTAL VALUE
CC[C@H](C)[C@@H]1NC(=O)[C@H](Cc2c[nH]cn2)NC(=O)[C@H](C)NC(=O)[C@H](CC(=O)O)NC(=O)[C@H](CC(C)C)NC(=O)[C@H]([C@@H](C)CC)NC(=O)[C@](C)(NC(=O)[C@H](C)NC(C)=O)CCCCCC=CCOC(=O)N(C)CC[C@@](C)(C(=O)N[C@@H](CCCNC(=N)N)C(=O)N[C@H](C(=O)N[C@@H](Cc2c[nH]c3ccccc23)C(N)=O)C(C)C)NC1=O [FP0503c, Ac-A-R7-I-L-D-A-H-I-MF-R-V-W-NH2]	solubility	35

Form field solubility, entry CC[C@H](C)[C@@H]1NC(=O)[C@H](Cc2c[nH]cn2)NC(=O)[C@H](C)NC(=O)[C@H](CC(=O)O)NC(=O)[C@H](CC(C)C)NC(=O)[C@H]([C@@H](C)CC)NC(=O)[C@](C)(NC(=O)[C@H](C)NC(C)=O)CCCCCCC=CCN2CC[C@@](C(=O)N[C@@H](CCCNC(=N)N)C(=O)N[C@H](C(=O)N[C@@H](Cc3c[nH]c4ccccc34)C(N)=O)C(C)C)(C2)NC1=O [FP0217a, Ac-A-R8-I-L-D-A-H-I-MB-R-V-W-NH2] (Ac-A[R8]ILDAHI[X4]RVW-NH2; staple 2-9) : 111

---

ASSAYED TARGET: full-length beta-catenin (Axin site) (Homo sapiens)
Construct: 15 nM full-length beta-catenin, 20 nM FITC labeled peptide in buffer
PROCEDURE DETAILS: Competition fluorescence polarization assay (Axin site probe)
Format: binding
CONDITION DESCRIPTION: competition fluorescence polarization, Table 2; read-out: in vitro FP EC50
Catalogue of EC50 readings, one per entry.

Check out these entries, answers already filled in.
COMPOUND	ASSAYED TARGET	EC50
CC[C@H](C)[C@@H]1NC(=O)[C@](C)(NC(=O)[C@H](CCC(N)=O)NC(=O)[C@@H]2CCCN2C(C)=O)CCCC=CCN(C)CC[C@](C)(C(=O)N[C@@H](Cc2c[nH]cn2)C(=O)N[C@H](C(=O)N[C@@H](CCCNC(=N)N)C(=O)N[C@@H](CCCNC(=N)N)C(=O)N[C@H](C(=O)N[C@@H](Cc2c[nH]c3ccccc23)C(=O)N[C@@H](CCCNC(=N)N)C(N)=O)C(C)C)C(C)C)NC(=O)[C@H](CC(=O)O)NC(=O)[C@H](CC(C)C)NC1=O (single isomer, unassigned) [FP0776a, Ac-P-Q-R5-I-L-D-MG-H-V-R-R-V-W-R-NH2]	full-length beta-catenin (Axin site) (Homo sapiens)	0.5 to 5 µM
CC[C@H](C)[C@@H]1NC(=O)[C@]2(NC(=O)[C@H](CCC(N)=O)NC(=O)[C@@H]3CCCN3C(C)=O)CCN(CC=CCCC[C@@](C)(C(=O)N[C@@H](Cc3c[nH]cn3)C(=O)N[C@H](C(=O)N[C@@H](CCCNC(=N)N)C(=O)N[C@@H](CCCNC(=N)N)C(=O)N[C@H](C(=O)N[C@@H](Cc3c[nH]c4ccccc34)C(=O)N[C@@H](CCCNC(=N)N)C(N)=O)C(C)C)C(C)C)NC(=O)[C@H](CC(=O)O)NC(=O)[C@H](CC(C)C)NC1=O)C2 (single isomer, unassigned) [FP0751a, Ac-P-Q-MB-I-L-D-S5-H-V-R-R-V-W-R-NH2]	full-length beta-catenin (Axin site) (Homo sapiens)	> 5 µM
CC[C@H](C)[C@@H]1NC(=O)[C@H](Cc2ccccn2)NC(=O)[C@H](C)NC(=O)[C@H](CC(=O)O)NC(=O)[C@H](CC(C)C)NC(=O)[C@H]([C@@H](C)CC)NC(=O)[C@](C)(NC(=O)[C@H](C)NC(C)=O)CCCCCCC=CCOC(=O)N2CC[C@@](C(=O)N[C@@H](CC(C)C)C(=O)N[C@H](C(=O)N[C@@H](Cc3c[nH]c4ccccc34)C(N)=O)C(C)C)(C2)NC1=O (single isomer, unassigned) [FP0557c Isomer 2, Ac-A-R8-I-L-D-A-2pyr-I-MB-L-V-W-NH2]	full-length beta-catenin (Axin site) (Homo sapiens)	> 5 µM

// next entry
Form field EC50, entry CC[C@H](C)[C@@H]1NC(=O)[C@H](Cc2ccccn2)NC(=O)[C@H](C)NC(=O)[C@H](CC(=O)O)NC(=O)[C@H](CC(C)C)NC(=O)[C@H]([C@@H](C)CC)NC(=O)[C@](C)(NC(=O)[C@H](C)NC(C)=O)CCCCCCC=CCOC(=O)N2CC[C@@](C(=O)N[C@@H](CC3CCCCC3)C(=O)N[C@H](C(=O)N[C@@H](Cc3c[nH]c4ccccc34)C(N)=O)C(C)C)(C2)NC1=O (single isomer, unassigned) [FP0566c Isomer 1, Ac-A-R8-I-L-D-A-2pyr-I-MB-Cha-V-W-NH2] : > 5 µM

---

ASSAYED TARGET: full-length beta-catenin (Axin site) (Homo sapiens, UniProt P35222)
Construct: 15 nM full-length beta-catenin, 20 nM FITC labeled peptide in buffer
Sequence (P35222 1-781): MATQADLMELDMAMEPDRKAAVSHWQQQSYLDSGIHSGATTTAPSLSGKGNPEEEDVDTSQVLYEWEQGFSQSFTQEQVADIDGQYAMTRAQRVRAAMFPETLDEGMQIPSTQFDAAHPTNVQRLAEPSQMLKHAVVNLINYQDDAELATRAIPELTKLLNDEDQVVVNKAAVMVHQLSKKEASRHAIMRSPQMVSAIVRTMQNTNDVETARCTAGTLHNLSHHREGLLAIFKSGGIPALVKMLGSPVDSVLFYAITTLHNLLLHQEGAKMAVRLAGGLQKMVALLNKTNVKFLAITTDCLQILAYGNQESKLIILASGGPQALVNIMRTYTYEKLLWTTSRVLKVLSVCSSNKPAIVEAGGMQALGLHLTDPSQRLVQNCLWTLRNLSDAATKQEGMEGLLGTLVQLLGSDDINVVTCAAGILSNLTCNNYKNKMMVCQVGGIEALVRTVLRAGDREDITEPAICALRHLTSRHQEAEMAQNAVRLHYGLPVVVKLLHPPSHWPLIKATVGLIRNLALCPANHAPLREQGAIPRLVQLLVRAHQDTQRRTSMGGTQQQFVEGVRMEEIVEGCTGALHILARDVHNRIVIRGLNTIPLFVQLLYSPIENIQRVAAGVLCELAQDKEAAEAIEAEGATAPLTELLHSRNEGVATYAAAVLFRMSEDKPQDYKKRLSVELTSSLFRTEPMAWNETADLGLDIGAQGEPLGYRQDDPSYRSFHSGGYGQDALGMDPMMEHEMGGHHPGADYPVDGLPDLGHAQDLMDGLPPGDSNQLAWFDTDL
PROCEDURE DETAILS: Competition fluorescence polarization assay (Axin site probe)
Assay type: binding
CONDITION DESCRIPTION: competition fluorescence polarization, Table 2; read-out: in vitro FP EC50
Experimental: FIG. 1. […] Peptide solutions were prepared in buffer (50 mM Tris pH 8.0, 250 mM NaCl, 2% glycerol, 0.5 mM EDTA, 0.02% w/v sodium azide) using a 3-fold serial dilution from 5 μM. […] Equal volume of the titrated peptide was added to the plate and incubated protected from light for 15 minutes prior to read. Reads were performed on a Spectramax M5 (Molecular Devices) in duplicate. FIG. 7. […] Reads were performed on a Spectramax M5 (Molecular Devices) in duplicate. […]
pEC50: −log10 of the molar value.
VALUE TYPE: pEC50

Entry under test: CC[C@H](C)[C@@H]1NC(=O)[C@H](Cc2ccccn2)NC(=O)[C@H](C)NC(=O)[C@H](CC(=O)O)NC(=O)[C@H](CC(C)C)NC(=O)[C@H]([C@@H](C)CC)NC(=O)[C@](C)(NC(=O)[C@H](C)NC(C)=O)CCCCCCC=CCOC(=O)N2CC[C@@](C(=O)N[C@@H](C)C(=O)N[C@H](C(=O)N[C@@H](Cc3c[nH]c4ccccc34)C(N)=O)C(C)C)(C2)NC1=O (single isomer, unassigned) [FP0554c Isomer 1, Ac-A-R8-I-L-D-A-2pyr-I-MB-A-V-W-NH2] . Its pEC50 was < 5.30
